B1: COUP transcription factor 1, residues 83 to 159; numbered along this chain, P10589 (parent)
chain: HIECVVCGDKSSGKHYGQFTCEGCKSFFKRSVRRNLTYTCRANRNCPIDQHHRNQCQYCRLKKCLKVGMRREAVQRG

- Variants of: B1
- Assay text: abundance fitness (aPCA) (normalised: wild type 0, dead -1); higher = more abundant; growth selection in yeast, the domain comes from the species named
- Cond: Homo sapiens
Quantity: abundance fitness
Answers are plain numbers.

Mutant code: M69N
abundance fitness: -0.864

Mutant code: G17V
abundance fitness: -0.421

Mutant code: H52V
abundance fitness: 0.023

Mutant code: I48M
abundance fitness: -0.13

Mutant code: K25R
abundance fitness: 0.095

Mutant code: C21N
abundance fitness: -0.61

Mutant code: P47R
abundance fitness: -0.188

Mutant code: F28A
abundance fitness: -0.809

Mutant code: S31H
abundance fitness: -0.176

Mutant code: T37S
abundance fitness: -0.009

Below are 6 variants. Give each one its abundance fitness.
1. R76W
2. T39K
3. Q75N
4. T37H
5. I48L
6. R60D

Solution:
1. 0.007
2. -0.083
3. -0.115
4. 0.133
5. -0.147
6. -0.535

Below are 8 variants. Give each one its abundance fitness.
1. N54D
2. R44C
3. Q75P
4. N45V
5. C56N
6. F19L
7. R44D
8. N45A

Solution:
1. -0.071
2. -0.153
3. 0.034
4. -0.058
5. -0.373
6. -0.129
7. 0.084
8. -0.076

Cited source: the Human Domainome abundance scans (Beltran et al. 2025)
